- assay notes: Solubility testing of peptides at different pH
- Type: physicochemical
- condition notes: 50 mM phosphate buffer pH 7.4; target concentration 1 mg/ml; 2 hours agitation; read-out: Solubility Buffer pH 7.4
Positions of bridges follow the written chain, without caps; N, C: chain ends. Non-standard residues stand in square brackets, D forms with d. Residues, ends and D or L forms follow the SMILES beside them. *: point of attachment. Trp(7-Me) = Cc1cccc2c(C[C@H](N)C(=O)O)c[nH]c12; 2Nal = N[C@@H](Cc1ccc2ccccc2c1)C(=O)O; Thp = NC1(C(=O)O)CCOCC1; Me2NCH2CH2 = CN(C)CC*; Aib = CC(C)(N)C(=O)O; Ava = NCCCCC(=O)O; βAla = NCCC(=O)O
measured parameter: solubility at 2 h

>>> reported("CC(=O)NCCCC[C@@H]1NC(=O)[C@H](Cc2c[nH]c3c(C)cccc23)NC(=O)[C@H]([C@@H](C)O)NC(=O)[C@H](CC(N)=O)NC(=O)[C@@H]2CSSC[C@H](NC1=O)C(=O)N[C@@H](Cc1ccc(OCCN(C)C)cc1)C(=O)N[C@@H](Cc1ccc3ccccc3c1)C(=O)NC(C)(C)C(=O)N[C@H](C(=O)N[C@@H](CC(N)=O)C(=O)N[C@@H](Cc1c[nH]cn1)C(=O)NCCC(N)=O)CCC(=O)NCCCCC(=O)N2 [compound 48] ([Ava]CNT[Trp(7-Me)]K(Ac)CY(Me2NCH2CH2)[2Nal][Aib]ENH[βAla]-NH2; disulfide 2-7; lactam N-11)")
"≥ 0.99 mg/mL"

Switching to the query record.
Find the measured solubility at 2 h of CC(=O)NCCCC[C@@H]1NC(=O)[C@H](Cc2c[nH]c3c(C)cccc23)NC(=O)[C@H]([C@@H](C)O)NC(=O)[C@H](CC(N)=O)NC(=O)[C@@H]2CSSC[C@H](NC1=O)C(=O)N[C@@H](Cc1ccc(OCCN(C)C)cc1)C(=O)N[C@@H](Cc1ccc3ccccc3c1)C(=O)NC1(CCOCC1)C(=O)N[C@H](C(=O)N[C@@H](CC(N)=O)C(=O)N[C@@H](Cc1c[nH]cn1)C(=O)NCCC(N)=O)CCC(=O)NCCCCC(=O)N2 [compound 49] ([Ava]CNT[Trp(7-Me)]K(Ac)CY(Me2NCH2CH2)[2Nal][Thp]ENH[βAla]-NH2; disulfide 2-7; lactam N-11) and report it.
≥ 1.05 mg/mL

###

- assay notes: Solubility testing of peptides at different pH
- Format: physicochemical
- condition notes: 50 mM phosphate buffer pH 7.4; target concentration 1 mg/ml; 2 hours agitation; read-out: Solubility Buffer pH 7.4
Positions of bridges follow the written chain, without caps; N, C: chain ends. Non-standard residues stand in square brackets, D forms with d. Residues, ends and D or L forms follow the SMILES beside them. 2Nal = N[C@@H](Cc1ccc2ccccc2c1)C(=O)O; Aib = CC(C)(N)C(=O)O
measured parameter: solubility at 2 h (µg/mL)
Just the number in µg/mL, nothing appended.

Answer with the recorded solubility at 2 h for the compound listed here: COc1ccc(C[C@@H]2NC(=O)[C@@H]3CSSC[C@H](NC(=O)[C@@H](NC(C)=O)CCCCNC(=O)C[C@@H](C(=O)N[C@@H](CC(N)=O)C(=O)N[C@@H](CC(N)=O)C(N)=O)NC(=O)C(C)(C)NC(=O)[C@H](Cc4ccc5ccccc5c4)NC2=O)C(=O)N[C@@H](CC(N)=O)C(=O)N[C@@H]([C@@H](C)O)C(=O)N[C@@H](Cc2c[nH]c4ccccc24)C(=O)N[C@@H](CCC(N)=O)C(=O)N3)cc1 [compound 7] (Ac-KCNTWQCY(Me)[2Nal][Aib]DNN-NH2; lactam 1-11; disulfide 2-7)
160
